target: Histone deacetylase 9 (Homo sapiens); experiment: Inhibition of HDAC9 in human HeLa cells nuclear extract using BocLys(acetyl)-AMC as substrate incubated for 1 hr by fluorescence plate reader analysis
Sequence (Q9UKV0 whole entry): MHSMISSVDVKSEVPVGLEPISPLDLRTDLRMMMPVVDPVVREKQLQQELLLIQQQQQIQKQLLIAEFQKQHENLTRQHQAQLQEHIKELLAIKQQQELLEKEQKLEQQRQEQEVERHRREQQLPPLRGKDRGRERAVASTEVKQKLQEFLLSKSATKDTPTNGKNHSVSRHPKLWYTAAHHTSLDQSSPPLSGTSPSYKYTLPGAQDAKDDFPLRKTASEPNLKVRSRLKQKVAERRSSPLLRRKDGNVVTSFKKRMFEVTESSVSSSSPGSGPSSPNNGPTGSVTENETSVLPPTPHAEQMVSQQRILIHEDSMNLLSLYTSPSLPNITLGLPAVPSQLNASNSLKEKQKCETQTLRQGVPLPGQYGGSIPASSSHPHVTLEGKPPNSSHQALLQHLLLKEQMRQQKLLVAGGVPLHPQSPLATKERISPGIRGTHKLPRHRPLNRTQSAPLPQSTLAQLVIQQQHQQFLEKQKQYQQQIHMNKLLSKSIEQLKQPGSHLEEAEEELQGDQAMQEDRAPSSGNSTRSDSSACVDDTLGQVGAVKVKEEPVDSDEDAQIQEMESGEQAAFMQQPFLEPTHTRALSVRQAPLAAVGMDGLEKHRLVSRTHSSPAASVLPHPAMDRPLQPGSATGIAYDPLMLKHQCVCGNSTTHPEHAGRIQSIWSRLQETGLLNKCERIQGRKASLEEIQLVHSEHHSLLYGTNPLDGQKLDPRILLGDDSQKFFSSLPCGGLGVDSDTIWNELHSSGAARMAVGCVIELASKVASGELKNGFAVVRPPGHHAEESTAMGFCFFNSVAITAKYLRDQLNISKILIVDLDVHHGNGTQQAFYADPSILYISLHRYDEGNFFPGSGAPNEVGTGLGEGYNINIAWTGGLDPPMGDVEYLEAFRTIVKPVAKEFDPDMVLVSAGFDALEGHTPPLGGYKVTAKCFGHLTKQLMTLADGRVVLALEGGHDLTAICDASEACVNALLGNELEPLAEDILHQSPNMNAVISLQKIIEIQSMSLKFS
Entries and their IC50

Solved cases below.
compound | tested_on | IC50
Nc1ccccc1NC(=O)c1ccc(CNc2cccc3c2C(=O)N(C2CCC(=O)NC2=O)C3=O)cc1 (stereo not drawn) | Histone deacetylase 9 (Homo sapiens) | > 2 µM
Nc1ccc(F)cc1NC(=O)c1ccc(CNC(=O)/C=C/c2cccnc2)cc1 | Histone deacetylase 9 (Homo sapiens) | > 2 µM

# input for lookup
Query: IC50; subject: Nc1cc(F)ccc1NC(=O)c1ccc(CNc2cccc3c2C(=O)N(C2CCC(=O)NC2=O)C3=O)cc1 (stereo not drawn)
> 2 µM

Data credit: ChEMBL document CHEMBL5532657
